- Test system: Pseudomonas syringae pv tomato
- procedureText: Biological evaluation of cupric salts of carboxylic acids on Pseudomonas syringae pv tomato, tomato plants in cold greenhouse (Example 10, comparative)
- Format: in vivo
- setupConditions: 250 ppm a.i., survey 7 days after infection/treatment, 10 plants per plot
measuredMetric: Leaf surface affected (%)
Return type: number; implicit unit %.

Below are worked cases with known answers.
>>> observedmeasurement("O=C(O)CCCC(=O)O.[Cu] [Copper glutarate]")
69
>>> observedmeasurement("O=C([O-])C(O)C(O)C(=O)[O-].[Cu+2] (stereo not shown) [Copper tartrate]")
69
>>> observedmeasurement("O=C(O)CC(O)C(=O)O.[Cu] (stereo not shown) [Copper malate]")
5

Kindly review the next compound as well.
input: Data request, read-out Leaf surface affected (%), for O=C(O)CCC(=O)O.[Cu] [Copper succinate]
output: 50

Numbers sourced from patent US20200281208A1.
